target_under_test: steroid site on the GABAA receptor-chloride channel complex
method: [35S]TBPS binding assay
Design: species or system Male Sprague-Dawley rats
condition_parameters: inhibition of [35S]TBPS (2 nM) binding, rat cerebral cortex P2 membranes, 5 µM GABA, 90 minute incubation at 22°C
pIC50: −log10 of the molar value.

compound | pIC50
CC(=O)[C@H]1CC[C@H]2[C@@H]3CC[C@H]4C[C@@](O)(CC#N)CC[C@]4(C)[C@H]3CC[C@]12C | 6.36
CC[C@@]1(O)CC[C@@]2(C)[C@@H](CC[C@@H]3[C@@H]2CC[C@]2(C)[C@@H](C(C)=O)CC[C@@H]32)C1 [3α-hydroxy-3β-ethyl-5α-pregnan-20-one] | 6.58
C[C@]12CC[C@@H](O)C[C@H]1CC[C@@H]1[C@@H]2CC[C@]2(C)[C@@H](C(=O)CO)CC[C@@H]12 [3α,21-dihydroxy-50-pregnan-20-one] | 6.74

###

target_under_test: steroid site on the GABAA receptor-chloride channel complex
method: [35S]TBPS binding assay
Parameters: species or system Male Sprague-Dawley rats
condition_parameters: inhibition of [35S]TBPS (2 nM) binding, rat cerebral cortex P2 membranes, 5 µM GABA, 90 minute incubation at 22°C
Please note: IC50 exactly at 90 nM is rule not met. Only values below 90 nM get rule met.

molecule | target_under_test | classification
CO/C=C1/CC[C@H]2[C@@H]3CC[C@H]4C[C@H](O)CC[C@@H]4[C@H]3CC[C@]12C | steroid site on the GABAA receptor-chloride channel complex | rule not met
C#C[C@@]1(O)CC[C@@]2(C)[C@H](CC[C@@H]3[C@@H]2CC[C@]2(C)[C@@H](C(C)=O)CC[C@@H]32)C1 [3β-ethynyl-3α-hydroxy-5β-pregnan-20-one] | steroid site on the GABAA receptor-chloride channel complex | rule met
CC(C)(O)[C@H]1CC[C@H]2[C@@H]3CC[C@H]4C[C@H](O)CC[C@]4(C)[C@H]3CC[C@]12C [3α,20-dihydroxy-20-methyl-5α-pregnane] | steroid site on the GABAA receptor-chloride channel complex | rule not met
CCOC(=O)c1ccc(C#C[C@@]2(O)CC[C@@]3(C)[C@H](CC[C@@H]4[C@@H]3CC[C@]3(C)[C@@H](C(C)=O)CC[C@@H]43)C2)cc1 | steroid site on the GABAA receptor-chloride channel complex | rule met
CC(=O)[C@H]1CC[C@H]2[C@@H]3CC[C@H]4C[C@@](O)(CCl)CC[C@]4(C)[C@H]3CC[C@]12C | steroid site on the GABAA receptor-chloride channel complex | rule not met
C#C[C@H]1CC[C@H]2[C@@H]3CC[C@H]4C[C@H](O)CC[C@]4(C)[C@H]3CC[C@]12C [3α-Hydroxy-17b-ethynyl-5α-androstane] | steroid site on the GABAA receptor-chloride channel complex | rule not met

###

method: Solubility in water
Assay type: physicochemical
condition_parameters: read-out: soluble in water

mol | solubility
C#C[C@@]1(O)CC[C@@]2(C)[C@H](CC[C@@H]3[C@@H]2CC[C@]2(C)[C@@H](C(=O)COC(=O)CCC(=O)O)CC[C@@H]32)C1 | > 20 mg/mL

###

target_under_test: steroid site on the GABAA receptor-chloride channel complex
method: [35S]TBPS binding assay
Parameters: species or system Male Sprague-Dawley rats
condition_parameters: inhibition of [35S]TBPS (2 nM) binding, rat cerebral cortex P2 membranes, 5 µM GABA, 90 minute incubation at 22°C
pIC50: −log10 of the molar value.
pIC50 reference

compound | target_under_test | pIC50
C[C@]12CC[C@@H](O)C[C@@H]1CC[C@@H]1[C@@H]2CC[C@]2(C)[C@@H](CO)CC[C@@H]12 | steroid site on the GABAA receptor-chloride channel complex | 6.34
CCCCCCC#C[C@@]1(O)CC[C@@]2(C)[C@H](CC[C@@H]3[C@@H]2CC[C@]2(C)[C@@H](C(C)=O)CC[C@@H]32)C1 | steroid site on the GABAA receptor-chloride channel complex | 7.20
CC(=O)c1ccc(C#C[C@@]2(O)CC[C@@]3(C)[C@H](CC[C@@H]4[C@@H]3CC[C@]3(C)[C@@H](C(C)=O)CC[C@@H]43)C2)cc1 | steroid site on the GABAA receptor-chloride channel complex | 7.85
C[C@]12CC[C@@H](O)C[C@@H]1CC[C@@H]1[C@@H]2CC[C@]2(C)[C@@H](C#N)CC[C@@H]12 [3α-hydroxy-17b-cyano-5α-androstane] | steroid site on the GABAA receptor-chloride channel complex | 7.17
COC[C@@]1(O)CC[C@@]2(C)[C@@H](CC[C@@H]3[C@@H]2CC[C@]2(C)[C@@H](C(C)=O)CC[C@@H]32)C1 | steroid site on the GABAA receptor-chloride channel complex | 7.17
CCC(=O)[C@H]1CC[C@H]2[C@@H]3CC[C@@H]4C[C@H](O)CC[C@]4(C)[C@H]3CC[C@]12C [3α-hydroxy-21-methyl-5β-pregnan-20-one] | steroid site on the GABAA receptor-chloride channel complex | 7.11
CC(=O)OCC(=O)[C@H]1CC[C@H]2[C@@H]3CC[C@@H]4C[C@@](O)(C(F)(F)F)CC[C@]4(C)[C@H]3CC[C@]12C | steroid site on the GABAA receptor-chloride channel complex | 6.43

###

target_under_test: steroid site on the GABAA receptor-chloride channel complex
method: [35S]TBPS binding assay
Design: species or system Male Sprague-Dawley rats
condition_parameters: inhibition of [35S]TBPS (2 nM) binding, rat cerebral cortex P2 membranes, 5 µM GABA, 90 minute incubation at 22°C
Experimental: TBPS binding assays were conducted according to the following procedures, which are described in Gee, K.W.; Lawrence, L.J.; and Yamamura, H. I., "Modulation of the Chloride Ionophore by Benzodiazepine Receptor Ligands Influence of Gamma-Aminobutyric Acid and Ligand Efficacy," Molecular Pharmacology, 30:218, 1986. […] Following a 90 minute incubation at 22°C, the suspension was filtered and the bound radioactivity was determined by liquid scintillation counting. […]
Counter-ions that a name gives are not always drawn.
# IC50 values compiled below

compound | IC50
C/C=C1/CC[C@H]2[C@@H]3CC[C@H]4C[C@](C)(O)CC[C@@H]4[C@H]3CC[C@]12C | 364 nM
C[C@H](O)[C@H]1CC[C@H]2[C@@H]3CC[C@H]4C[C@](C)(O)CC[C@]4(C)[C@H]3CC[C@]12C [3α,20a-dihydroxy-30-methyl-5α-pregnane] | 166 nM
C/C=C1/CC[C@H]2[C@@H]3CC[C@H]4C[C@H](O)CC[C@@H]4[C@H]3CC[C@]12C | 373 nM
C[C@@]12CCC[C@H]1[C@@H]1CC[C@H]3C[C@H](O)CC[C@]3(C)[C@H]1CC2 [3α-Hydroxy-5α-androstane] | 252 nM
C#C[C@@]1(O)CC[C@H]2[C@H](CC[C@@H]3[C@@H]2CC[C@]2(C)[C@@H](C(C)=O)CC[C@@H]32)C1 | 44 nM
CC(=O)[C@H]1CC[C@H]2[C@@H]3CC[C@H]4C[C@@](O)(CBr)CC[C@]4(C)[C@H]3CC[C@]12C | 190 nM
C=C=CC[C@@]1(O)CC[C@@]2(C)[C@@H](CC[C@@H]3[C@@H]2CC[C@]2(C)[C@@H](C(C)=O)CC[C@@H]32)C1 | 347 nM
C#C[C@@]1(O)CC[C@@]2(C)[C@@H](CC[C@@H]3[C@@H]2CC[C@]2(C)[C@@H](C(=O)CO)CC[C@@H]32)C1 | 216 nM
CC(=O)[C@H]1CC[C@H]2[C@@H]3CC[C@H]4C[C@@](O)(CN=[N+]=[N-])CC[C@]4(C)[C@H]3CC[C@]12C | 34 nM
C[C@]12CC[C@@H](O)C[C@@H]1CC[C@@H]1[C@@H]2CC[C@]2(C)[C@@H](C(=O)COC(=O)CCC(=O)O)CC[C@@H]12 | 117 nM
CC(C)(O)[C@H]1CC[C@H]2[C@@H]3CC[C@H]4C[C@](C)(O)CC[C@]4(C)[C@H]3CC[C@]12C | 264 nM
CC(=O)[C@H]1CC[C@H]2[C@@H]3CC[C@@H]4C[C@@](O)(C#CCC(C)OC(=O)CCC(=O)O)CC[C@]4(C)[C@H]3CC[C@]12C (mixture of isomers) [sodium salt] | 153 nM
CC(=O)[C@H]1CC[C@H]2[C@@H]3CC[C@@H]4C[C@H](O)CC[C@]4(C)[C@H]3CC[C@]12C [3α-hydroxy-5β-pregnan-20-one] | 25 nM
CCOC[C@@]1(O)CC[C@@]2(C)[C@@H](CC[C@@H]3[C@@H]2CC[C@]2(C)[C@@H](C(C)=O)CC[C@@H]32)C1 | 154 nM

###

target_under_test: steroid site on the GABAA receptor-chloride channel complex
method: [35S]TBPS binding assay
Design: species or system Male Sprague-Dawley rats
condition_parameters: inhibition of [35S]TBPS (2 nM) binding, rat cerebral cortex P2 membranes, 5 µM GABA, 90 minute incubation at 22°C; sodium salt
pIC50: −log10 of the molar value. Structures can show the parent of a compound that is named as a salt.
readout_type: pIC50

compound | value
C[C@]12CC[C@@H](O)C[C@@H]1CC[C@@H]1[C@@H]2CC[C@]2(C)[C@@H](C(=O)COC(=O)CCC(=O)O)CC[C@@H]12 [sodium salt] | 6.60
C[C@@]1(O)CC[C@@]2(C)[C@@H](CC[C@@H]3[C@@H]2CC[C@]2(C)[C@@H](C(=O)COC(=O)CCC(=O)O)CC[C@@H]32)C1 [sodium salt] | 6.68
